src = patent US20080021217A1

experimental target: recombinant N-terminal GST-tagged human Rho kinase 2 (ROCK2, amino acids 1-552) (Homo sapiens, UniProt O75116)
Construct: ROCK2, amino acids 1-552, Invitrogen Inc., cat #PV3759; GST (N)
Sequence (O75116 1-552): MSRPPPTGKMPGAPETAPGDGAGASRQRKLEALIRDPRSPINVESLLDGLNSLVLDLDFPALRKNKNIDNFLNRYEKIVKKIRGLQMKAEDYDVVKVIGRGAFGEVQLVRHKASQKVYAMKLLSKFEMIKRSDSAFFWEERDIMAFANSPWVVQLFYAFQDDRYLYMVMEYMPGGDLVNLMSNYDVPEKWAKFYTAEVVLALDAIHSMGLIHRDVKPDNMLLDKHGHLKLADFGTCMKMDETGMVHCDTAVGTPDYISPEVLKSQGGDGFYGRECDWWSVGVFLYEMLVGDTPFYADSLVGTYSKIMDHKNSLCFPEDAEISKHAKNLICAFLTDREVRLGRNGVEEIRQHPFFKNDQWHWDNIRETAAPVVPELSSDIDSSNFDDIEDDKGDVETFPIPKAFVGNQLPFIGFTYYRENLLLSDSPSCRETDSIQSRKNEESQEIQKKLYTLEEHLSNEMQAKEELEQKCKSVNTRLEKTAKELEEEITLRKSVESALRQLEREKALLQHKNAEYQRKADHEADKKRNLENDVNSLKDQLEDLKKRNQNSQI
method: In vitro Rho kinase assay (luciferase-based ATP consumption), ROCK2
Some molecules, each annotated with its measured IC50.

molecule: Cc1cccc(C(=O)NCc2cc(-c3ccncc3)n[nH]2)c1O
IC50: < 5 µM
--
molecule: CC(C)(C)C(=O)Oc1ccc(C(=O)NCc2nc(-c3ccncc3)n[nH]2)c(O)c1
IC50: > 5 µM

Indicate the recorded IC50 value for this molecule: O=C(NCc1c[nH]c(-c2ccncc2)n1)c1ccc(O)cc1O
< 5 µM

Indicate the recorded IC50 value for this molecule: CC(C)C(=O)Oc1ccc(C(=O)NCc2nc(-c3ccncc3)n[nH]2)c(O)c1
< 5 µM

Indicate the recorded IC50 value for this molecule: O=C(NCc1nc(-c2ccncc2)n[nH]1)c1cccs1
< 5 µM

Indicate the recorded IC50 value for this molecule: O=C(NCc1nc(-c2ccncc2)n[nH]1)c1ccsc1
< 5 µM

Indicate the recorded IC50 value for this molecule: O=S(=O)(NCc1nc(-c2ccncc2)n[nH]1)c1ccc(OCc2ccccc2)cc1
> 5 µM

Indicate the recorded IC50 value for this molecule: Cc1cccc(C(=O)NCc2nc(-c3ccncc3)c[nH]2)c1O
< 5 µM

Indicate the recorded IC50 value for this molecule: Cn1nc(-c2ccncc2)nc1CNC(=O)c1cccs1
> 5 µM

Indicate the recorded IC50 value for this molecule: COc1ccc(NC(=O)NCc2nc(-c3ccncc3)n[nH]2)c(OC)c1
> 5 µM

Indicate the recorded IC50 value for this molecule: CC(NC(=O)c1ccc(O)cc1O)c1nc(-c2ccncc2)n[nH]1 (stereo not drawn)
< 5 µM

Indicate the recorded IC50 value for this molecule: CC(C)c1cccc(C(=O)NCc2nc(-c3ccncc3)n[nH]2)c1O
< 5 µM

Indicate the recorded IC50 value for this molecule: CS(=O)(=O)Nc1cccc(C(=O)NCc2nc(-c3c[nH]c4ncccc34)n[nH]2)c1
< 5 µM

Indicate the recorded IC50 value for this molecule: CC(C)(C)OC(=O)NCCCC(NC(=O)c1ccc(O)cc1O)c1nc(-c2ccncc2)n[nH]1 (stereo not drawn)
< 5 µM

Indicate the recorded IC50 value for this molecule: O=C(NCc1nc(-c2ccncc2)no1)c1cccs1
> 5 µM

Indicate the recorded IC50 value for this molecule: O=C(O)c1ccc(C(=O)NCc2nc(-c3ccncc3)n[nH]2)cc1
< 5 µM

Indicate the recorded IC50 value for this molecule: O=C(CCc1nc(-c2ccncc2)n[nH]1)c1ccc(O)cc1
< 5 µM

Indicate the recorded IC50 value for this molecule: Cc1c(Cl)ccc(S(=O)(=O)NCc2nc(-c3ccncc3)n[nH]2)c1O
> 5 µM

Indicate the recorded IC50 value for this molecule: Cc1cccc(C(=O)NCc2c[nH]c(-c3ccncc3)n2)c1O
> 5 µM

Indicate the recorded IC50 value for this molecule: CC(NC(=O)c1cccs1)c1nc(-c2ccncc2)n[nH]1 (stereo not drawn)
< 5 µM

Indicate the recorded IC50 value for this molecule: Clc1ccc(SCc2nc(-c3ccncc3)n[nH]2)cc1
< 5 µM

Indicate the recorded IC50 value for this molecule: O=C(NCc1nc(-c2ccncc2)n[nH]1)c1cccc2cc[nH]c12
< 5 µM

Indicate the recorded IC50 value for this molecule: O=C(NCc1nc(-c2ccncc2)c[nH]1)c1cccs1
< 5 µM

Indicate the recorded IC50 value for this molecule: O=C(NCc1nc(-c2ccncc2)n[nH]1)c1ccccc1O
< 5 µM

Indicate the recorded IC50 value for this molecule: COc1cccc(C(=O)NCc2nc(-c3ccncc3)no2)c1
> 5 µM

Indicate the recorded IC50 value for this molecule: COc1cccc(O)c1C(=O)NCc1nc(-c2ccncc2)n[nH]1
< 5 µM
